So I've got a bunch of compounds here, and I need their GI50 values.
System: HeLa
Assay: Growth inhibition of human HeLa after 48 hrs
Assay type: functional
Write down the numeric answer in µM and omit the unit.

(Q) // map CCCCC(C#CC(=O)OC)O/C=C/C(=O)OC (racemic) to recorded GI50 (system: HeLa)
(A) 3.4

(Q) Check CCCCC[C@@H](C#CC(=O)OC)O/C=C/C(=O)OC too.
(A) 2.9

(Q) Check CCCCCC(C#CC(=O)OC)O/C=C/C(=O)OC (racemic) too.
(A) 17

(Q) Check CCCCC[C@H](C#CC(=O)OC)O/C=C/C(=O)OC too.
(A) 2.6

Source: ChEMBL document CHEMBL2424647
